Where these numbers come from: PubChem BioAssay (NCI)

TGI values by entry
Tested on: ACHN renal
Test: NCI tumour cell line growth inhibition, 48 h
*1 amine or outer side, *2 acyl side, *3 side chain or, on linkers, in order; H or OH if unused. Where a SMILES comes first, the peptide text is derived from it. [ ]: non-standard residue; d: D form. The star is where a group is joined. X31 = CC(=O)N(C)SCC(N[*:1])C(=O)[*:2]; Fmoc = O=C(OCC1c2ccccc2-c2ccccc21)*; For = O=C*

Reference set (10 entries):
compound	TGI
O=C1NC(SCc2ccc(F)cc2)=N/C1=C/c1cccc(OCc2ccc(Cl)cc2)c1	3.87 µM
Cn1nc(C(=O)N2CC(CCl)c3c2cc([N+](=O)[O-])c2ccccc32)cc1NC(=O)Nc1cc(C(=O)N2CC(CCl)c3c2cc([N+](=O)[O-])c2ccccc32)nn1C (stereo not drawn)	> 100 µM
CCOC(=O)/C=C1\Oc2ccccc2C1(C)O (stereo not drawn)	> 100 µM
COC(=O)[C@@H]1[C@H](O)CC[C@H]2[C@@]1(C)CC[C@@H](C)[C@]2(COC(C)=O)CC(=O)c1ccoc1	> 50 µM
CC(=O)N(C)SCC(NC(=O)C(Cc1ccccc1)NC(=O)OCC1c2ccccc2-c2ccccc21)C(=O)NC(Cc1ccccc1)C(=O)NC(Cc1cn(C=O)c2ccccc12)C(=O)NC(CCCCNC(=O)OCC1c2ccccc2-c2ccccc21)C(=O)NC(C(=O)NC(CSN(C)C(C)=O)C(=O)NC(C(N)=O)C(C)O)C(C)O (stereo not drawn) (Fmoc-F[X31]FW(For)K(Fmoc)T[X31]T-NH2; configuration not given here)	> 100 µM
Cc1ccc(-n2cc(-c3ccc(Cl)cc3)c3c2N=CN2NC(c4cccs4)=NC32)cc1 (stereo not drawn)	19.2 µM
COC1(Cc2ccccc2)C(=O)c2ccccc2N1C(C)=O (stereo not drawn)	> 100 µM
Cc1cc(C(O)CNC(C)CCn2cnc3c2c(=O)n(C)c(=O)n3C)ccc1O (stereo not drawn)	> 100 µM
O=[N+]([O-])c1cc2c(ccc3occc32)o1	8.03 µM
CC(Cc1ccc2c(c1)OCO2)N(C)C(=O)C1=CCN(C)CC1 (stereo not drawn)	> 100 µM

Looking for the measured TGI of `O=c1cc(-c2ccc(O)cc2)oc2cc(O)cc(O)c12` , can you help?
30.3 µM

Looking for the measured TGI of `O=C1c2ccn(CCCCN(CCO)CCO)c2C(=O)c2c1c(O)c1ccccc1c2O` , can you help?
57.7 µM

Looking for the measured TGI of `Oc1ccc(Cn2c(-c3ccc(O)cc3)nc3ccccc32)cc1` , can you help?
> 100 µM

Looking for the measured TGI of `CCCN(CCC)C(=O)c1c(Cl)c2cccnc2n2c(C)cnc12` , can you help?
> 100 µM

Looking for the measured TGI of `NS(=O)(=O)c1ccc(NC(=O)c2cccc3c(Nc4ccc(S(N)(=O)=O)cc4)c4ccccc4nc23)cc1` , can you help?
> 100 µM

Looking for the measured TGI of O=C1NN=CN2C(=O)CCC12 (stereo not drawn) , can you help?
> 100 µM

Looking for the measured TGI of `CN(CCO)/N=N/c1nc[nH]c1C(N)=O` , can you help?
> 100 µM

Looking for the measured TGI of `Cc1ccc(N2C(=O)C(=O)N(/N=C3\C(=O)Nc4ccccc43)C2=S)cc1` , can you help?
> 100 µM
